I'd appreciate it if you could supply pIC50 values for the items below.
system: RAW264.7; experiment: Evaluated for inhibition of COX-2 catalyzed PGE-2 production from LPS induced RAW 264.7 cells; Range: 0.1-0.5 uM; format: functional, cell-based; settings: Mus musculus
pIC50: −log10 of the molar value.

>>> reportedvalue("O=c1cc(-c2ccc(Cl)c(Cl)c2)oc2cc(O)ccc12")
"> 6.30"
>>> reportedvalue("COc1ccc2c(=O)cc(-c3ccc(Cl)c(Cl)c3)oc2c1")
"> 6.30"

Turning now to a further compound:
get_value(item= COc1cccc2oc(-c3ccc(Cl)c(Cl)c3)cc(=O)c12 , readout=pIC50) returns > 6.30
